So I've got IC50 readings for E3 ubiquitin-protein ligase CBL-B (Homo sapiens), take a look.
Expressed in nM, but write only the number.

- CC(C)CNCc1cc(Cl)c2c(c1)C(=O)N(c1cccc([C@H](c3nncn3C)[C@H]3C[C@@H](CC#N)C3)c1)C2: 4.2

Please provide the recorded IC50 for Cn1cnnc1[C@]1(c2cccc(N3Cc4c(Cl)cc(CNCC5CCC5)cc4C3=O)c2)C[C@H](Cl)C1 , tested on E3 ubiquitin-protein ligase CBL-B (Homo sapiens).
Sequence (Q13191 whole entry): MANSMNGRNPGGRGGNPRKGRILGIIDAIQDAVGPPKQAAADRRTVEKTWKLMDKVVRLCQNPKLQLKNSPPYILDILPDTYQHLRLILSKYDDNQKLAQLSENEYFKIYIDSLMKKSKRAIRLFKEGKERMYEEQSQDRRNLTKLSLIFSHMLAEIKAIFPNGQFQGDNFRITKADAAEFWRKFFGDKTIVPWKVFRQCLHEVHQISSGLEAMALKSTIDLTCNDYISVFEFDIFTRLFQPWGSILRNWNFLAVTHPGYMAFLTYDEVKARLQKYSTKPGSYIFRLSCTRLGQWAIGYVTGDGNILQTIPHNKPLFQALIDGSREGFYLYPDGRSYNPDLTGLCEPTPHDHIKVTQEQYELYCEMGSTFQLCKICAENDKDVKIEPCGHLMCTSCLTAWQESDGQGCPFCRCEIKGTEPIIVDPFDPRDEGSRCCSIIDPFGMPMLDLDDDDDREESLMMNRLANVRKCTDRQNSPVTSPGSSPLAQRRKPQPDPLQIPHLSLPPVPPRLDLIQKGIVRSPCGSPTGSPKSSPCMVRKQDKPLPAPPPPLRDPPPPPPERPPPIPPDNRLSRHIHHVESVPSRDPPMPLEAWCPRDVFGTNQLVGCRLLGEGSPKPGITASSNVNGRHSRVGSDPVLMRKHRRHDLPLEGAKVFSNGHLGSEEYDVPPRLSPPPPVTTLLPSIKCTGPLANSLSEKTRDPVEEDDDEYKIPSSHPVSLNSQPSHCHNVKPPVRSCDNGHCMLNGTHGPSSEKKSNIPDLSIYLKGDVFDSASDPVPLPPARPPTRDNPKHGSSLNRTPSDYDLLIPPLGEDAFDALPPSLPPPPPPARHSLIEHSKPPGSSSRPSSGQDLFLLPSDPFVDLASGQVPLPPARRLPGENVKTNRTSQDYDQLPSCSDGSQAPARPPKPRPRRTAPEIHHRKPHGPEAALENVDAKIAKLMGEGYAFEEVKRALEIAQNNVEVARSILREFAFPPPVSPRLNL
4.1
